Listed here are variants together with their documented protein stability index.
B1: TRIM63 (parent)
chain: QEKKLSFIEALIQQYQEQLDKSTK

variants of: B1; test: protein stability index of a GFP-peptide fusion (GPS, HEK-293T) (PSI 1-6); higher = more stable; details: c terminus: a fixed tail appended;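 note: lentivirally expressed fusions sorted by FACS into six bins by GFP to DsRed ratio, PSI derived from sequencing read proportions per bin multiplied by bin number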
Answer field: number only, no words.

Known results for variants:
- Sequence Record: "QEKKLSHIEALIQQYQEQLDKSTK [F7H]"
  protein stability index: 4.2
- Sequence Record: "QEKKLSFIEAIIQQYQEQLDKSTK [L11I]"
  protein stability index: 2.02
- Sequence Record: "QEKKLSFIECLIQQYQEQLDKSTK [A10C]"
  protein stability index: 2.14
- Sequence Record: "QEVKLSFIEALIQQYQEQLDKSTK [K3V]"
  protein stability index: 2.32
- Sequence Record: "QEKKLSCIEALIQQYQEQLDKSTK [F7C]"
  protein stability index: 3.23

Returns the measured protein stability index for the input variant. Input: QEKKLSFIFALIQQYQEQLDKSTK [E9F]
1.8

Further, for QEKKLSFIEALRQQYQEQLDKSTK [I12R] ?
2.33

Further, for QEKKLSFIEDLIQQYQEQLDKSTK [A10D] ?
3.47

Further, for QEKKLSFIEALIQQYQGQLDKSTK [E17G] ?
2.21

Further, for YEKKLSFIEALIQQYQEQLDKSTK [Q1Y] ?
2.02

Further, for QEKKLSFIIALIQQYQEQLDKSTK [E9I] ?
2.06

Further, for QEKKLSFIEALIQQYQEQLDKSTD [K24D] ?
3.66

Further, for QEKKLSFIEARIQQYQEQLDKSTK [L11R] ?
4.58
